- assay text: Biological distribution in bodies of normal mice
- Type: in vivo, mice (ICR)
- particulars: caudal vein injection, 60 min
Thyroid for assorted compounds
quantity: Thyroid

compound="FCCOc1ccc(COc2ccc([125I])cc2)cc1 [[^125I]35a]" observed_value="0.34 ± 0.10 % ID/organ"
compound="FCCOc1ccc(OCc2ccc([125I])cc2)cc1 [[^125I]31a]" observed_value="0.16 ± 0.03 % ID/organ"
compound="CN(C)c1ccc(OCc2ccc([125I])cc2)cc1 [[^125I]22]" observed_value="0.27 ± 0.04 % ID/organ"
compound="COc1ccc(OCc2ccc([125I])cc2)cc1 [[^125I]4]" observed_value="0.11 ± 0.02 % ID/organ"
compound="CN(C)c1ccc(-c2cn3cc([125I])ccc3n2)cc1 [[^125I]IMPY, reference compound]" observed_value="0.30 ± 0.09 % ID/organ"
